Value source: ChEMBL document CHEMBL3988442

Entries and their Percent Effect
# Tested on: Trypanosoma cruzi
# Procedure summary: Trypanosoma cruzi phosphomannomutase and mannose-1-phosphate guanylyltransferase assay
# Type: functional
# Set-up: scale not given: direction of the effect not stated beside the values
# Measurement parameters: 10 µM
The response must be a number in % with no trailing unit.

Entry "O=C(C1CCOCC1)N1C[C@@H]2[C@@H](C1)OCC(=O)N2Cc1ccncc1" ; Percent Effect = 1.19

Reported Percent Effect ( "Cc1cnn(CCC(=O)N2CCN(c3ncccc3Cl)CC2)c1" ) = -4.21

---

List of Percent Effect values.
# Tested target: Tyrosyl-tRNA synthetase, putative (Trypanosoma cruzi (strain CL Brener))
# Procedure summary: Trypanosoma cruzi tyrosyl tRNA synthetase (TcYRS) _High Tyrosine SOP; note: in the data most compounds retested in dose-response had high values
# Assay type: functional
# Design: scale not given: direction of the effect not stated beside the values
# Measurement parameters: 30 µM
All answers are understood in %, so give the number only.

Some solved entries appear below for comparison.
Compound | Tested target | Quantitative readout
Cc1nc([C@@H]2C[C@@H]3CCN(C(=O)Cc4ccsc4)C[C@H]3O2)no1 | Tyrosyl-tRNA synthetase, putative (Trypanosoma cruzi (strain CL Brener)) | -1.58
CCS(=O)(=O)NCCNC(=O)c1cc(Cl)c2c(c1)OCCCO2 | Tyrosyl-tRNA synthetase, putative (Trypanosoma cruzi (strain CL Brener)) | 2.15
CCc1nc(CCNC(=O)NC2CC2)sc1C | Tyrosyl-tRNA synthetase, putative (Trypanosoma cruzi (strain CL Brener)) | 6.93
Cc1nc2ccccn2c1CN(Cc1cccnc1)CC1CCCO1 (stereo not drawn) | Tyrosyl-tRNA synthetase, putative (Trypanosoma cruzi (strain CL Brener)) | -2.15
COc1cc(CNCc2c(C(C)C)nn(C)c2N(C)C)ccn1 | Tyrosyl-tRNA synthetase, putative (Trypanosoma cruzi (strain CL Brener)) | 4.41

The measured Percent Effect associated with NC(=O)c1cc(C2CCCN(CCOCC(F)(F)F)C2)n[nH]1 (stereo not drawn) reads 2.39

The reported Percent Effect of the compound "CCc1cnc2c(c1NCc1cccc(OC)c1)c(=O)n(C)c(=O)n2C" was 3.17

Form: compound = "O=C(CCn1cccn1)N1CCN(CC(F)F)CC1" ; Percent Effect = 9.9

For CC1CN(c2ccc(CNC(=O)c3ccn(C)c(=O)c3)cn2)CCO1 (stereo not drawn) the compound record lists Percent Effect as 3.68

Measured Percent Effect of "CCc1nnc2n1CCN(Cc1nc(-c3ccoc3)no1)C2" : 12

Note to self: Percent Effect recorded for COc1ccc(C(C)N2CCN(Cc3nccn3C)CC2)cc1Cl (stereo not drawn) was 2.91

Percent Effect reading for CN(C)C(CNC(=O)NCCc1cccc(O)c1)c1ccco1 (stereo not drawn) : 0
